Ref: ChEMBL document CHEMBL1141363

TARGET DESC: Matrix metalloproteinase-9 (Homo sapiens, UniProt P14780)
Sequence (P14780 whole entry): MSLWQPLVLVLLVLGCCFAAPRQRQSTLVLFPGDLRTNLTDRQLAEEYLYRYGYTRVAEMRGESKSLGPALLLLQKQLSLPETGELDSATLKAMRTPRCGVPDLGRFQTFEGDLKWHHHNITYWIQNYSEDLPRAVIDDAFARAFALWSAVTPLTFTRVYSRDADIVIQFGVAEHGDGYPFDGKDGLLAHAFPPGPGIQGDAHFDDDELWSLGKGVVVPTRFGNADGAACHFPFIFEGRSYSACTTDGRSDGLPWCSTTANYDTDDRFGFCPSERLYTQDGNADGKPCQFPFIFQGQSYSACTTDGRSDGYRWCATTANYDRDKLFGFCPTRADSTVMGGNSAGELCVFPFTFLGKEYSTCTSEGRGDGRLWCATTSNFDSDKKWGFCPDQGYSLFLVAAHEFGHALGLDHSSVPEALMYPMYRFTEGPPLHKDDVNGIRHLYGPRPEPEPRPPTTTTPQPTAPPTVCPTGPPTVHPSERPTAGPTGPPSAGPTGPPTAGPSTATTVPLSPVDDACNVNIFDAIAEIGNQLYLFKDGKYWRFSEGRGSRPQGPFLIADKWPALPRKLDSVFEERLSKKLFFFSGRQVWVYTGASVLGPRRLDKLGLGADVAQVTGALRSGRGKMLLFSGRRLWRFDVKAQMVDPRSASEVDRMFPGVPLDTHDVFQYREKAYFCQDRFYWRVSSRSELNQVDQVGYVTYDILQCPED
MEASURED PROPERTY: IC50

These recorded examples may help you get a feel for the data.
Request: IC50, test system Matrix metalloproteinase-9 (Homo sapiens, UniProt P14780), entry "O=C(OCc1cccc(C(F)(F)F)c1)c1cccc(=O)[nH]1" > 150 µM

Request: IC50, test system Matrix metalloproteinase-9 (Homo sapiens, UniProt P14780), entry "c1ccc(CCCn2cc(C3=NCCO3)nn2)cc1" > 150 µM

Request: IC50, test system Matrix metalloproteinase-9 (Homo sapiens, UniProt P14780), entry "C(=C\c1ccccc1)/Cn1nnc(Cc2cccnc2)n1" > 150 µM

Request: IC50, test system Matrix metalloproteinase-9 (Homo sapiens, UniProt P14780), entry "O=C(Oc1cccs1)c1cccc(=O)[nH]1" 70 µM

Request: IC50, test system Matrix metalloproteinase-9 (Homo sapiens, UniProt P14780), entry "O=C(OCc1ccc(C(F)(F)F)cc1)c1cccc(=S)[nH]1" 141 µM

Further cases:
Request: IC50, test system Matrix metalloproteinase-9 (Homo sapiens, UniProt P14780), entry "O=C(OCc1ccc(Oc2ccccc2)cc1)c1cccc(S)n1" 110 µM
